Origin of the recorded values: patent US20180273595A1

Molecular target: T1, recombinant His-tagged full-length ERG (UniProt P11308 1-479, biotinylated with NHS-PEG4 biotin for the OctetRED assays)
T1 construct: mature; Baculovirus expression in SF9 cells, Ni-NTA purified; also called wild-type ERG; wtERG; not shown: His tag
T1 sequence (looked up): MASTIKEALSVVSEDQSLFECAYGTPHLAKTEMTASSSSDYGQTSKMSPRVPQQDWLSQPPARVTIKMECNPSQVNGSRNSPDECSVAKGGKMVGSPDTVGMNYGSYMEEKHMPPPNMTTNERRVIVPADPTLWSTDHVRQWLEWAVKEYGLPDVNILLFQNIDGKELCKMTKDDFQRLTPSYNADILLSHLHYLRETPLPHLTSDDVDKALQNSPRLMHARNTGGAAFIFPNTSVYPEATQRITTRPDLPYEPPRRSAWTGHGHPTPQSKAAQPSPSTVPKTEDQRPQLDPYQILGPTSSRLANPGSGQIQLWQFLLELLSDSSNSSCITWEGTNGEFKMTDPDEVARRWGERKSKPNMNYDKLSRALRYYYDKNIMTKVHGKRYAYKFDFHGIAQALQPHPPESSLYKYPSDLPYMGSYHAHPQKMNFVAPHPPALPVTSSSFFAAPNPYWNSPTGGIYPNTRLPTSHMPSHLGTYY
Assay: OctetRED BLI, biotinylated ERG on streptavidin sensors
pKd: −log10 of the molar value.
Entries and their measured pKd follow.
reportedEndpoint: pKd

binder="MTFGTLP [synthetic peptide MTFGTLP]" quantitativereadout=5.34
binder="LRFGTLP [synthetic peptide LRFGTLP]" quantitativereadout=5.10
binder="LSFGSFP [synthetic peptide LSFGSFP]" quantitativereadout=4.90
binder="FSASSPA [synthetic peptide FSASSPA]" quantitativereadout=4.68
binder="FSFGSLP [synthetic peptide FSFGSLP]" quantitativereadout=5.68
binder="LSFGTFP [synthetic peptide LSFGTFP]" quantitativereadout=5.04
binder="YTFGTLP [synthetic peptide YTFGTLP]" quantitativereadout=5.49
binder="LAFGSLP [synthetic peptide LAFGSLP]" quantitativereadout=5.19
